Tested on: Saccharomyces cerevisiae;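 further: PSI per variant is the weighted mean of its sequencing read distribution over the sorted stability bins, counting only variants with over 10 reads summed across bins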
Procedure Summary: protein stability index of tFT-peptide fusion in deletion strain of DOA10 (PSI (0-1 scale)); higher = more stable (slower turnover)
Recorded protein stability index, one value per entry.

Input Sequence	Assay System	protein stability index
GLYMCSVGCWFRW	Saccharomyces cerevisiae	0.621
CLVSLPIYLFFR	Saccharomyces cerevisiae	0.607
GLAMCSVGCWFR	Saccharomyces cerevisiae	0.661
AITLPMCPLLYR	Saccharomyces cerevisiae	0.652
RVTRLDAIYFRH	Saccharomyces cerevisiae	0.716
CLVSLPILLAFR	Saccharomyces cerevisiae	0.594
RVTRLDAITFRI	Saccharomyces cerevisiae	0.72
RETRLDAIYFRI	Saccharomyces cerevisiae	0.667

Origin of measurements: the supplement of paper PMC10724198
